Measured On: Wee1 (h) (Homo sapiens, UniProt P30291)
Sequence (P30291 whole entry): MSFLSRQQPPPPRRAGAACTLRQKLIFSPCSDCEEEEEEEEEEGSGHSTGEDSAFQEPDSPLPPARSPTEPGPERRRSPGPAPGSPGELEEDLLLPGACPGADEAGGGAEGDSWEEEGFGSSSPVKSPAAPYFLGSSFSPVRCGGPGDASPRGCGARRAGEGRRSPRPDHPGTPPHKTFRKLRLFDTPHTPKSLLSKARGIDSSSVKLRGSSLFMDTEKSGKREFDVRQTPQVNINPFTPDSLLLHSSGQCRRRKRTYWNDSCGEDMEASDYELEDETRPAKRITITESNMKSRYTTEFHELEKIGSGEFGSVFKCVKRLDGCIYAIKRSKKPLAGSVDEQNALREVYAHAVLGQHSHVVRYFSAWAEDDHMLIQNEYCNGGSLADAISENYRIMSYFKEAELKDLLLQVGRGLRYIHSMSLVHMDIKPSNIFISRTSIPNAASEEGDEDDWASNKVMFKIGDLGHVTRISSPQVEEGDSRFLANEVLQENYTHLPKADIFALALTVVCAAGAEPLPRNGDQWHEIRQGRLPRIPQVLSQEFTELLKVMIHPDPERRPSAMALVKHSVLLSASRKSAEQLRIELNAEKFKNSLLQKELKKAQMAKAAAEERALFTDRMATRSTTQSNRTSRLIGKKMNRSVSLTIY
Assay Details: Wee1 kinase (h) detection method, [γ-33P]-ATP filter assay
Format: biochemical
Applied Conditions: C 0.01 μm compound
List of Inh. (%) of Wee1 kinase enzyme activity values.
State just the number; it will be interpreted in %.

Some entries whose results are on file:
Smiles Text	Display Unit	Inh. (%) of Wee1 kinase enzyme activity
Cc1cc(Nc2ncc3c(n2)N2CCN=C2N(c2c(F)cccc2F)C3=O)ccc1N1CCN(C)CC1	%	15
C[C@@H]1CN(c2ccc(Nc3ncc4c(n3)N3CCN=C3N(c3c(F)cccc3Cl)C4=O)cc2Cl)C[C@H](C)N1C	%	45
CN1Cc2cc(Nc3ncc4c(n3)N3CCN=C3N(c3c(F)cccc3Cl)C4=O)ccc2C2(CC2)C1	%	46
CN1CCN(c2c(Cl)cc(Nc3ncc4c(n3)N3CCN=C3N(c3c(Cl)cccc3Cl)C4=O)cc2Cl)CC1	%	20

// recorded Inh. (%) of Wee1 kinase enzyme activity for CN(C)C1CCN(c2ccc(Nc3ncc4c(n3)N3CCN=C3N(c3c(F)cccc3Cl)C4=O)cc2Cl)CC1 : 22

// recorded Inh. (%) of Wee1 kinase enzyme activity for CN(C)CCCOc1ccc(Nc2ncc3c(n2)N2CCN=C2N(c2c(F)cccc2Cl)C3=O)cc1 : 38

// recorded Inh. (%) of Wee1 kinase enzyme activity for C[C@@H]1CN(c2ccc(Nc3ncc4c(n3)N3CCN=C3N(c3c(F)cccc3Cl)C4=O)cc2F)C[C@H](C)N1C : 28

// recorded Inh. (%) of Wee1 kinase enzyme activity for CC(C)N1Cc2cc(Nc3ncc4c(n3)N3CCN=C3N(c3c(F)cccc3Cl)C4=O)ccc2C2(CC2)C1 : 46

// recorded Inh. (%) of Wee1 kinase enzyme activity for Cc1cc(Nc2ncc3c(n2)N2CCN=C2N(c2c(Cl)cccc2Cl)C3=O)cc(Cl)c1N1C[C@@H](C)N(C)[C@@H](C)C1 : 20

====

Measured On: Wee1 (h) (Homo sapiens)
Assay Details: Wee1 kinase (h) detection method, [γ-33P]-ATP filter assay
Type: biochemical
Applied Conditions: C 0.01 μm compound
Method: Determination of the inhibitory effect of 6-(2-chlorophenyl)-2-((4-(4-methylpiperazin-1-yl)phenyl)amino)-8,9-dihydroimidazo[1,2-a]pyrimido[5,4-e]pyrimidin-5(6H)-one and Analogs on the Enzyme Activity of Wee1 Kinase by Using the Wee1 Kinase (h) Detection Method Then the stock solution of all compounds under test with 50× concentration in 100% DMSO was added to make the final concentration of 10/1/0.1/0.01 μM, and then mixed the mixture well. […]
Observable: Inh. (%) of Wee1 kinase enzyme activity
State just the number; it will be interpreted in %.

Some entries whose results are on file:
Smiles Text	Observable	Result
COc1cc(Nc2ncc3c(n2)N2CCN=C2N(c2c(Cl)cccc2Cl)C3=O)cc(Cl)c1N1CCN(C)CC1	Inh. (%) of Wee1 kinase enzyme activity	30
CN1CCN(c2c(Cl)cc(Nc3ncc4c(n3)N3CCN=C3N(c3c(Cl)cccc3Br)C4=O)cc2Cl)CC1	Inh. (%) of Wee1 kinase enzyme activity	17

// recorded Inh. (%) of Wee1 kinase enzyme activity for C[C@@H]1CN(c2ccc(Nc3ncc4c(n3)N3CCN=C3N(c3c(Cl)cccc3Cl)C4=O)cc2Cl)C[C@H](C)N1C : 22

// recorded Inh. (%) of Wee1 kinase enzyme activity for CN1CCN(c2ccc(Nc3ncc4c(n3)N3CCN=C3N(c3c(Cl)cccc3Cl)C4=O)cc2Cl)CC1 : 36

// recorded Inh. (%) of Wee1 kinase enzyme activity for Cc1cc(Nc2ncc3c(n2)N2CCN=C2N(c2c(C)cccc2F)C3=O)cc(C)c1N1CCN(C)CC1 : 16

// recorded Inh. (%) of Wee1 kinase enzyme activity for Cc1cc(Nc2ncc3c(n2)N2CCN=C2N(c2c(Cl)cccc2Br)C3=O)cc(F)c1N1CCC(N(C)C)CC1 : 31

// recorded Inh. (%) of Wee1 kinase enzyme activity for Cc1cc(Nc2ncc3c(n2)N2CCN=C2N(c2c(F)cccc2Cl)C3=O)cc(C(F)(F)F)c1N1CCN(C)CC1 : 8

// recorded Inh. (%) of Wee1 kinase enzyme activity for CN1CCN(c2c(Cl)cc(Nc3ncc4c(n3)N3CCN=C3N(c3c(Cl)cccc3Cl)C4=O)cc2Br)CC1 : 16

// recorded Inh. (%) of Wee1 kinase enzyme activity for Cc1cc(Nc2ncc3c(n2)N2CCN=C2N(c2c(Cl)cccc2Cl)C3=O)ccc1N1C[C@@H](C)N(C(C)C)[C@@H](C)C1 : 29
